- System: MGC-803
- experimental.protocol: Cytotoxicity against human MGC803 cells after 48 hrs by SRB assay
- Assay type: functional, cell-based
- experimental.parameters: MGC-803, 48 h
pIC50: −log10 of the molar value.
We use 4 as the dividing line for pIC50: on or above the line is MET, below is NOT MET.

query: Reported pIC50 reaches at least 4 for `CC(C)N1C(=O)/C(=C2/C(=O)Nc3ccccc32)c2ccccc21` ?
result: NOT MET

query: Reported pIC50 reaches at least 4 for `CC(=O)N1C(=O)/C(=C2/C(=O)N(C(C)=O)c3ccccc32)c2ccccc21` ?
result: NOT MET

query: Reported pIC50 reaches at least 4 for `CC(C)CN1C(=O)/C(=C2/C(=O)Nc3ccccc32)c2ccccc21` ?
result: NOT MET

query: Reported pIC50 reaches at least 4 for `O=C1Nc2ccccc2/C1=C1\C(=O)N(CCc2ccccc2)c2ccccc21` ?
result: NOT MET

query: Reported pIC50 reaches at least 4 for `CCN1C(=O)/C(=C2/C(=O)Nc3ccccc32)c2ccccc21` ?
result: MET

----------
- System: MGC-803
- experimental.protocol: Cytotoxicity against human MGC803 cells after 48 hrs by SRB assay
- Type: functional, cell-based
- experimental.parameters: MGC-803, 48 h
test.readout: IC50 (µM)
Give just the number in µM; leave the unit off.

// worked examples, IC50 included
COc1ccc(N2C(=O)/C(=C3/C(=O)Nc4ccccc43)c3ccccc32)cc1 : 122
O=C1Nc2ccccc2/C1=C1\C(=O)N(c2ccc(F)cc2)c2ccccc21 : 108
CN1C(=O)/C(=C2/C(=O)Nc3ccccc32)c2ccccc21 [MEISOINDIGO] : 128

Note to self: IC50 recorded for `CCCCN1C(=O)/C(=C2/C(=O)Nc3ccccc32)c2ccccc21` was 87.9
